So I've got a bunch of compounds here, and I need their solubility at 1 min values.
ASSAY SUMMARY: Solubility test in water (stepwise addition of water, ultrasonic waves, visual observation of precipitate)
Assay type: physicochemical
SETTINGS: from solid

In: For the compound shown here, `CC(C)(C)c1ccc2c(c1)C1(c3cc(N4CCCN5CCCN=C54)ccc3-c3ccc(N4CCCN5CCCN=C54)cc31)c1cc(C(C)(C)C)ccc1-2` , give the reported solubility at 1 min.
Out: 58 to 61 µg/mL

In: Now the compound `CC(C)(C)c1ccc2c(c1)C1(c3ccccc3-c3ccc(N4CCCN5CCCN=C54)cc31)c1cc(C(C)(C)C)ccc1-2`
Out: < 2.3 µg/mL

In: Now the compound c1ccc2c(c1)-c1ccccc1C21c2cc(N3CCCN4CCCN=C43)ccc2-c2ccc(N3CCCN4CCCN=C43)cc21 [2,7hpp2SF, reference compound]
Out: 330 to 390 µg/mL

Data provenance is patent US20230348400A1.
